Assay: OD615 S. cerevisiae growth inhibition, permissive medium, pilot counter-assay, permissive growth control for S. cerevisiae lifespan shortening project (AID 705)
Conditions: OD615, 24 h, at 10 µM, active compounds read high
Catalogue of growth inhibition values
Just the number please, in %, no unit attached.

- Cc1c(C(=O)NCc2ccc3c(c2)OCO3)oc2ccc(S(=O)(=O)N3CCCC3)cc12: -2.78
- O=C(NC1CCCCCC1)C1CCN(S(=O)(=O)c2cccc3cccnc23)CC1: 8.96
- CCOC(=O)C1CCCN(C(=O)Cn2sc3nc(C)cc(C)c3c2=O)C1 (stereo unspecified): 18.4
- CCOc1ccc(-c2cc(CCCC(=O)NCc3cccnc3)no2)cc1: 0.205
- CN1CCCc2cc3c(C(F)(F)F)cc(=O)oc3nc21: -5.06
- Cn1c(C(=O)NCCCN2CCN(c3ccccc3F)CC2)cc2c(=O)n(C)c3ccccc3c21: -3.28

Prompt: Returns the measured growth inhibition for the input molecule. Input: CC(C)C12CN3CC(C(C)C)(CN(C1)C31C(=O)Nc3ccccc31)C2=O (stereo unspecified)
Response: -16.5

Prompt: Again, but for Cc1ccccc1CSc1nnc(Cn2c(=O)sc3ccccc32)n1C
Response: -9.17

Prompt: Again, but for Cc1ccc(C)c(N2CCN(c3ncnc4c3cnn4-c3ccccc3)CC2)c1
Response: -11.6

Prompt: Again, but for COCC(=O)NCc1nc2ccccc2[nH]1
Response: -12.6

Prompt: Again, but for COc1cccc(Nc2cc(C)nc3nc(C)nn23)c1
Response: -0.125

These entries and their values trace back to PubChem BioAssay.
